target: T1, antigenic protein: class A β-lactamase fragment of Mycobacterium abscessus (Blamab gene) with C-terminal TEV … (Mycobacterium abscessus); experiment: nitrocefin hydrolysis assay with purified enzyme, Lineweaver-Burk
T1 construct: 34; 34 cannot be excluded; also called 21; β-lactamase of M.abscessus
pKi: −log10 of the molar value.
Classification field: 1 = pKi at or over 5; -1 = pKi under 5.

Challenge: pKi >= 5 for β-lactamase inhibitor B6 antibody (VHH, sdAb from a synthetic naive yeast display library; expressed from pET26b in the E. coli periplasm and purified by chromatography; also called sdAb B6) VHH: QVQLQESGGGLVQAGGSLRLSCAASGTISAVSGMGWYRQAPGKEREFVASINRGSTTNYADSVKGRFTISRDNAKNTVYLQMNSLKPEDTAVYYCAALHGTGRVHVYWGQGTQVTVSS ?
Response given: 1

Challenge: Is it the case that β-lactamase inhibitor B2 antibody (VHH, sdAb from a synthetic naive yeast display library; expressed from pET26b in the E. coli periplasm and purified by chromatography; also called sdAb B2) VHH: QVQLQESGGGLVQAGGSLRLSCAASGTIFVYPYMGWYRQAPGKEREFVAGIGQGATTYYADSVKGRFTISRDNAKNTVYLQMNSLKPEDTAVYYCAAYRYRDDVRRYGIDRYHTYWGQGTQVTVSS has pKi reaching or exceeding 5?
Response given: 1

Challenge: Determine whether this binder has pKi no lower than 5: β-lactamase inhibitor B5 antibody (VHH, sdAb from a synthetic naive yeast display library; expressed from pET26b in the E. coli periplasm and purified by chromatography; also called sdAb B5) VHH: QVQLQESGGGLVQAGGSLRLSCAASGNISDLGTMGWYRQAPGKEREFVAGIGTGSNTYYADSVKGRFTISRDNAKNTVYLQMNSLKPEDTAVYYCAVIAGRSYWIYFYYWGQGTQVTVSS
Response given: 1

Challenge: pKi >= 5 for single domain antibody B1 (VHH, sdAb from a synthetic naive yeast display library; expressed from pET26b in the E. coli periplasm and purified by chromatography; also called sdAb B1) VHH: QVQLQESGGGLVQAGGSLRLSCAASGNIFTVSSMGWYRQAPGKEREFVAAISDGATTNYADSVKGRFTISRDNAKNTVYLQMNSLKPEDTAVYYCAAYASRVGLTVYWGQGTQVTVSS ?
Response given: -1

Challenge: Could you tell me if the measured pKi of β-lactamase inhibitor B4 antibody (VHH, sdAb from a synthetic naive yeast display library; expressed from pET26b in the E. coli periplasm and purified by chromatography; also called sdAb B4) VHH: QVQLQESGGGLVQAGGSLRLSCAASGTIFAQDYMGWYRQAPGKEREFVASIAYGTITYYADSVKGRFTISRDNAKNTVYLQMNSLKPEDTAVYYCAVYPTPVTDYIYWGQGTQVTVSS reaches 5 or more?
Response given: 1

Challenge: Determine whether this binder has pKi no lower than 5: β-lactamase inhibitor B3 antibody (VHH, sdAb from a synthetic naive yeast display library; expressed from pET26b in the E. coli periplasm and purified by chromatography; also called sdAb B3) VHH: QVQLQESGGGLVQAGGSLRLSCAASGTIFYYPYMGWYRQAPGKEREFVAGIDYGSTTYYADSVKGRFTISRDNAKNTVYLQMNSLKPEDTAVYYCAVVYLVTRKGASQQDEIYSYWGQGTQVTVSS
Response given: 1

Where these numbers come from: patent EP4729537A1
